target: ITPKb (Mus musculus); construct: murine ITPKb residues 640-942; MGSDKIHHHHHH (His6 tag from MH4 plasmid) (N); made in house; host or cells: Escherichia coli HK100; assay: Biochemical measurement of ITPKb activity (Kinase-Glo ATP depletion assay); inhibiting the phosphorylation of IP3 to IP4; set-up: species or system murine; details: Table 1; inhibiting the phosphorylation of IP3 to IP4; read-out: IC50
Sequence (B2RXC2 640-942): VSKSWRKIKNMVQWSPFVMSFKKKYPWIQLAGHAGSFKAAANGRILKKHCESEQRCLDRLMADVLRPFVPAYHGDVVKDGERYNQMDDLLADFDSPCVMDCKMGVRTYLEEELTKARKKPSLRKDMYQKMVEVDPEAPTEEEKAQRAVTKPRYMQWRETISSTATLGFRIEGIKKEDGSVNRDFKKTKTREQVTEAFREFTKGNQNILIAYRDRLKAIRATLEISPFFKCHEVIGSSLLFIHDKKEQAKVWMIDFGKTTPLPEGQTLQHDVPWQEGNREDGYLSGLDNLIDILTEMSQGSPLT
reportedMetric: IC50 (nM)

[I] N#Cc1c[nH]c(-c2n[nH]cc2CN2CCN(c3ccc(C(F)(F)F)cn3)[C@H](C(F)(F)F)C2)c1 [Example 29]
[II] C[C@@H]1CN(Cc2c[nH]nc2-c2nc3cc(F)ccc3[nH]2)CCN1c1ccc(C(F)(F)F)cn1 [Example 27]
[III] C[C@@H]1CN(Cc2c[nH]nc2C2CCNCC2)CCN1c1ccc(C(F)(F)F)cn1 [Example 48]
[IV] FC(F)(F)c1ccc(N2CCN(Cc3c[nH]nc3-c3cccs3)CC2)nc1 [Example 22]
**Query** Please give the order of these molecules when sorted by IC50, largest value leading. List the labels in the requested order.
**Result** II, IV, III, I

All figures here come from patent US20110263610A1.
